- PROTOCOL TEXT: Cytotoxicity toward human Huh7 liver cells
MEASUREMENT LABEL: pIC50
Entry type: numeric. Quantity: pIC50, the -log10 of concentration in molar units.

Input: What value of measured pIC50 is listed for CC/C(=C(\c1ccccc1)c1ccc(OCCN(C)C)cc1)c1ccccc1 [Tamoxifen, reference compound] ?
Output: 4.38

* * *

- Test system: K. pneumonia, 700603 (Kp)
- Assay type: cell-based
- CONDITION PARAMETERS: Mueller Hinton Broth
Ends that are not written are not given here.
Each record is given Fulfilled if its reported MIC Kp is strictly below 8 µM. Records at or above 8 µM are given Not fulfilled.

As a guide, the following entries are already answered.
GGHGIRRIIRKIIHIIKK-NH2 (C-terminus assumed) [PEP 188, GGHGIRRIIRKIIHIIKK]    Fulfilled
GGHRRWKIVVIRWRRGGC [PEP 314, GGHRRWKIVVIRWRRGGC]    Not fulfilled
GGHIRRIIRKIIHIIKKGGC [PEP 318]    Not fulfilled
GGHGWRWYCR [PEP 204, GGHGWRWYCR]    Fulfilled

# evaluate next
Input: Given the entry GGHGWRWYCRGGK [PEP 323, GGHGWRWYCRGGK] , would its reported MIC Kp be below 8 µM?
Output: Not fulfilled

* * *

- Test system: K. pneumonia, 700603 (Kp)
- Type: cell-based
- CONDITION PARAMETERS: Mueller Hinton Broth
Ends that are not written are not given here.
MEASUREMENT LABEL: MIC Kp (µM)
API: value field is a number in µM; no unit string.

GGHGIRRIIRKIIHIIKKGGC [PEP 311]    7.9
GGHWRWYCRGGK [PEP 322, GGHWRWYCRGGK]    7.6
GGHGRRWKIVVIRWRRGGC [PEP 321, GGHGRRWKIVVIRWRRGGC]    14.2

Alright, here's another sequence for you.
Input: What value of measured MIC Kp is listed for GGHGVRRFPWWWPFLRR [PEP 189, GGHGVRRFPWWWPFLRR] ?
Output: 7.2
